assay.explanation: Potentiation of theophylline transdermal permeation in pig ear skin at pH 7 by Franz diffusion cells method
Assay type: ADME, Sus scrofa
assay.conditions: artificial membrane
quantity.kind: Activity

structure	result
CCCCCCOC(=O)CCCCCCCCCCCN.Cl	Active
CCCCCCCCCCCCCCOC(=O)CCCN	Not Active
CCCCCCCCCCOC(=O)CCCCCCCN.Cl	Active
CCCCCCCCOC(=O)CCCCCCCCCN.Cl	Active
CCCCCCOC(=O)CCCCCCCCCCCN	Not Active
CCCCCCCCCCCCCCCOC(=O)CCN	Not Active

Recorded Activity (molecule CCCCCCCCCCCCOC(=O)CCCCCN ): Not Active

====

assay.explanation: Potentiation of theophylline transdermal permeation in pig ear skin at pH 7 by Franz diffusion cells method
Type: ADME, Sus scrofa
assay.conditions: artificial membrane
quantity.kind: Activity

Field: example entries. Status: answers known.
structure	Activity
CCCCCCCCCCOC(=O)CCCCCCCN	Not Active
CCCCCCCCCCCOC(=O)CCCCCCN.Cl	Active
CCCCCCCCCCCCCOC(=O)CCCCN	Not Active
CCCCCCCCCCCCCCCOC(=O)CCN.Cl	Active
CCCCCCCCCCCCOC(=O)CCCCCN.Cl	Active
CCCCCCCCCCCCCOC(=O)CCCCN.Cl	Active

Recorded Activity (molecule CCCCCCCCOC(=O)CCCCCCCCCN ): Not Active

Recorded Activity (molecule CCCCCCCCCCCOC(=O)CCCCCCN ): Not Active

Recorded Activity (molecule CCCCCCCCCCCCCCOC(=O)CCCN.Cl ): Active
